target: Beta-lactamase (Enterobacter cloacae, UniProt P05364); assay: Irreversible inhibition of Enterobacter cloacae P99 beta-lactamase using cephalothin as substrate by spectrophotometric analysis; settings: read-out: kon (M-1-s-1)
Sequence (P05364 whole entry): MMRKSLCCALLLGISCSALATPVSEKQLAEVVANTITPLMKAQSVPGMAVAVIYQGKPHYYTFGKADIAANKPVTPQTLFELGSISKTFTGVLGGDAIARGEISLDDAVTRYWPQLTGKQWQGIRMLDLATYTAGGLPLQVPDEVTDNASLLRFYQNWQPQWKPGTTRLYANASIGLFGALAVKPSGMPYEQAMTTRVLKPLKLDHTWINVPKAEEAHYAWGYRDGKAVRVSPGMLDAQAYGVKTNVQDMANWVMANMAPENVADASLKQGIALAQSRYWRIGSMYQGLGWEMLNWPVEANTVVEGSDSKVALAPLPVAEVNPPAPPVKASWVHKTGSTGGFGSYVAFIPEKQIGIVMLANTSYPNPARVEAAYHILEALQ
Entries annotated with measured kon
Answer with a number only, understood to be in M⁻¹ s⁻¹.

| substanceSmiles | unitText | kon |
| --- | --- | --- |
| O=C(NOC(=O)Oc1ccccc1)OCCc1ccccc1 | M⁻¹ s⁻¹ | 1400 |
| CCCCOC(=O)NOC(=O)Oc1ccccc1 | M⁻¹ s⁻¹ | 1100 |
| O=C(NOC(=O)Oc1ccccc1)OCc1ccccc1 | M⁻¹ s⁻¹ | 2000 |
| O=C(O)CCCCOC(=O)NOC(=O)Oc1ccccc1 | M⁻¹ s⁻¹ | 8500 |

Looking for the measured kon of N[C@H](CCCOC(=O)NOC(=O)Oc1ccccc1)C(=O)O , can you help? 16000
